assay: Trypanosoma cruzi growth suppression in host cells – NIH3T3 host cells, beta-gal luminescence, confirmation (AID 2044); format: functional, cell-based;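 further: intracellular parasites grown in NIH/3T3 mouse fibroblasts as host cells; luminescent beta-galactosidase reporter signal from transgenic T. cruzi replicating inside host cells; inhibitors lower the luminescence signal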
Calls of active or inactive are those of the source. No stated cut-off is given here; in the data, actives have a measured EC50 and inactives only a lower limit.
ASSAY ENDPOINT: EC50

1) Cc1nn(-c2ccccc2)c(N2CCCC2)c1/C=N/NC(=O)c1cc(-c2ccccc2)nc2ccccc12
1960 nM (active)

In the following, a different compound is considered.
In: Need EC50 of `CC(C)CCc1noc(CN(C)CC2CCN(Cc3ccccc3)CC2)n1` , thanks.
Out: 1470 nM (active)

* * *

Biological target: Streptokinase A (Streptococcus pyogenes serotype M1, UniProt P10520)
Sequence (P10520 whole entry): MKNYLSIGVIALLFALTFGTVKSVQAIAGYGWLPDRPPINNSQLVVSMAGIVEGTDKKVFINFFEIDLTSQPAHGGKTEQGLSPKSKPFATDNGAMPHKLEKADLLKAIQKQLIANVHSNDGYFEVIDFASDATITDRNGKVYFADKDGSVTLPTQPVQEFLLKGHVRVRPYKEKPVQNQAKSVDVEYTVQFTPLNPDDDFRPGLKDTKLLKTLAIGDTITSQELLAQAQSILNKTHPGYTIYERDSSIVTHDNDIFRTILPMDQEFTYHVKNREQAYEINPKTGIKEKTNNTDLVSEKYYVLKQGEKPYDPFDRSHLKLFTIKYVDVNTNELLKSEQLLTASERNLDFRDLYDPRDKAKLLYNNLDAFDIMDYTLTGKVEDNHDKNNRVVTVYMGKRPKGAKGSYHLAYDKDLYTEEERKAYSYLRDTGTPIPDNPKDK
Assay: viability-normalized secreted streptokinase activity reduction – plasminogen activation absorbance, OD405, dose response (AID 1914);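 further: secreted streptokinase activity via plasminogen activation per viability signal from cell pellet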
Type: functional, Streptococcus pyogenes M1 GAS
Activity calls are given as the source filed them. Cut-off read from the data, not from the text of the source: actives have a measured EC50 and inactives only a lower limit.
ASSAY ENDPOINT: EC50

1) Cc1nc2c(=O)n(C)c(=O)nc-2n(C)n1
> 150 µM (not active)
2) CCCn1c(C2CCCN2c2nc(-c3cccc(Br)c3)cs2)nc2cc(Cl)c(Cl)cc21 (stereo not given)
> 150 µM (not active)
3) CCC(CC)C1=NN2C(=N)/C(=C\c3c(C)[nH]c4ccccc34)C(=O)N=C2S1
18.9 µM (inconclusive)
4) Cc1nc2c(C(=O)Nc3ccc(N4CCCC(O)C4)cc3)snc2c(=O)[nH]1 (stereo not given)
> 150 µM (not active)
5) Cc1nn(Cc2ccc(Cl)cc2Cl)c(C)c1NC(=O)NC12CC3CC(CC(C3)C1)C2
32.7 µM (active)

In the following, a different molecule is considered.
In: Need EC50 of C=CCn1c(COc2ccccc2)nnc1SC(C)C(=O)N/N=C/c1cc(Cl)ccc1O (stereo not given) , thanks.
Out: > 150 µM (not active)
